tested on: SF-539 CNS; test: NCI tumour cell line growth inhibition, 48 h
Listed here are compounds together with their documented TGI.
Measurement Label: TGI

1. CSC1=NC(=O)CCN1C1OCC(OC(C)=O)C(OC(C)=O)C1OC(C)=O (stereo not given) = 28.7 µM
2. C=CC(C)CCC(C/C=C(\C)CCCC(C)C)C(=C)CCCC(C)C (stereo not given) = > 100 µM
3. COC1CC(=O)C2C(=O)N(c3ccccc3)C(=O)C23C(C(=O)c2ccccc2)=C(C)NC13O (stereo not given) = 21.8 µM
4. CC(=O)N(CN1C(=O)CCC1C(=O)O)c1ccc(C)cc1 (stereo not given) = > 100 µM
5. CCN(CC)c1ccc(CNc2cc(C)nc3ccc(OC)cc23)cc1 = 4.36 µM

====

system: SF-539 CNS; assay: NCI tumour cell line growth inhibition, 48 h; in the data active = GI50 below about 0.43 µM; inactive = the rest
Labels: 1.0 = active, 0.0 = inactive

1) Cc1cc(N2CCCCC2)nc(NCc2cc(Nc3ccnc4cc(Cl)ccc34)ccc2F)n1 = 0.0
2) O=C(Nc1ccc(-n2ccc3c(NC(=O)c4ccccc4)ncnc32)cc1)Nc1ccc(Cl)c(C(F)(F)F)c1 = 0.0
3) COc1ccc(-c2c(-c3cc4c(c(OC)c3OC)OCO4)noc2N)cc1 = 1.0
4) CC[C@@]1(O)C(=O)OCc2c1cc1n(c2=O)Cc2cc3c([N+](=O)[O-])c(O)ccc3nc2-1 = 1.0
5) COc1ccc(C2CC(c3ccc4ccccc4c3)=NN2/C=C2\SC(=S)N(NC(=O)Cc3ccccc3Nc3c(Cl)cccc3Cl)C2=O)cc1 (stereo unspecified) = 1.0
6) Cc1c(C)n(CC(O)CNC2CCCCC2C)c2ccccc12 (stereo unspecified) = 0.0
7) C[C@]12CC/C(=N\O)C[C@@H]1CC[C@@H]1[C@@H]2CC[C@]2(C)/C(=N/O)CC[C@@H]12 = 0.0
8) CCN(CC)c1ccc(CNc2cc(C)nc3ccc(OC)cc23)cc1 = 0.0
9) N=C(N)c1ccc(CS(=O)(=O)F)cc1 = 0.0
10) COc1ccc(Nc2[nH]n(C3=Nc4ccccc4Sc4ccccc43)c(=O)c2C#N)cc1 = 0.0
11) CS(=O)(=O)c1nccc(-c2c(-c3cccc(OCc4ccccc4)c3)nc3sccn23)n1 = 0.0

====

test system: SK-OV-3 ovarian; assay: NCI tumour cell line growth inhibition, 48 h
Parameter TGI: see the listing below.
Measurement Label: TGI (µM)

1. CCN(CC)c1ccc(CNc2cc(C)nc3ccc(OC)cc23)cc1 = 22
2. CN(C)C=O.CN(C)C=O.CN1C(C(=O)Nc2ccccn2)=C([O-])c2ccccc2S1(=O)=O.CN1C(C(=O)Nc2ccccn2)=C([O-])c2ccccc2S1(=O)=O.[Cu+2] = 45.8

====

Recorded log10 TGI for the following compounds
test system: HL-60(TB) leukemia; experiment: NCI tumour cell line growth inhibition, 48 h
Measurement Label: log10 TGI (log10 of the value in µM)

1) CC1(C)CCCC2(C)C3=C(CCC12)C(=O)OC3 (centres undefined) = 1.83
2) CC1(C)[C@H]2CC[C@](C)(C2)[C@]1(S)Cc1ccccn1 = 1.71
3) Cc1cc(C)nc(NS(=O)(=O)c2ccc(Nc3nc4nc(NCc5ccccc5)nc(-c5ccc(O)cc5)c4c(=O)[nH]3)cc2)n1 = 1.56
4) Cc1c2ccccc2c(CSC(=N)N)c2ccccc12 = -0.46
5) C[C@]12CCC(=O)C=C1CC[C@@H]1[C@@H]2CC[C@]2(C)C(=O)/C(=C/c3ccncc3)C[C@@H]12 = 1.50

====

The following molecules are shown together with reported GI50 values.
system: HT29 colon; experiment: NCI tumour cell line growth inhibition, 48 h
Measurement Label: GI50

1) COc1ccc(NC(=O)COc2ccccc2)c(C(N)=O)c1 = 430 nM
2) O=C1C2=C(C(=O)c3c(O)ccc(O)c31)N(c1cccnc1)Cc1ccccc1O2 = 313 nM
3) C[C@@]1([C@H](OC(=O)c2cccc3ccccc23)C(N)=O)CO1 = 1050 nM
4) N=C(N)c1ccc(CS(=O)(=O)F)cc1 = > 100000 nM
5) Nc1c(C(=O)c2cccc(C(O)(CO)CO)c2)cnn1-c1ccc(F)cc1 = > 25000 nM
6) Oc1ccccc1/C=N/Nc1nc2ccccc2s1 = 21100 nM
7) O=C(NCCN1CCOCC1)Nc1nc2ccc(Sc3nnc4ccc(-c5ccc(F)cc5)nn34)cc2s1 = 2790 nM
8) COc1ccc(-c2cnc(SCC(=O)c3c(C)n(C)n(-c4ccccc4)c3=O)n2-c2ccc(OC)cc2)cc1 = > 50000 nM
9) COc1ccc(/C=C(/C(=O)N2CCN(c3ccc(C)cc3)CC2)c2cc(OC)c(OC)c(OC)c2)cc1N = 339 nM
10) Cc1cc(C)nc(NS(=O)(=O)c2ccc(Nc3nc4nc(NCc5ccccc5)nc(-c5ccc(O)cc5)c4c(=O)[nH]3)cc2)n1 = 57900 nM
11) Cc1ccccc1NC(=O)N/C(N)=N/c1nc(C)c(C)s1 = 104 nM
12) CS(=O)(=O)OCCCCOS(C)(=O)=O = > 846000 nM
13) CCCCCCCC(=O)SCC/C=C/[C@@H]1CC(=O)NCc2cccc(n2)C2=N[C@@](C)(CS2)C(=O)N[C@@H](C(C)C)C(=O)O1 = 25.6 nM
14) C[C@]12CC/C(=N\O)C[C@@H]1CC[C@@H]1[C@@H]2CC[C@]2(C)/C(=N/O)CC[C@@H]12 = 42700 nM
15) O=C(Nc1ccc(-n2ccc3c(NC(=O)c4ccccc4)ncnc32)cc1)Nc1ccc(Cl)c(C(F)(F)F)c1 = 1520 nM
16) Cc1cc(NCCCNc2ccnc3cc(Cl)ccc23)nc(Nc2ccc(C(=O)N3CCCCC3)cc2)n1 = 2330 nM
17) COc1ccc(C(=O)OC2C(OC3C(O)COC(O[C@H]4C[C@H]5[C@@H]6CC=C7C[C@@H](O)CC[C@]7(C)[C@H]6CC[C@]5(C)[C@H]4[C@H](C)C(=O)CCC(C)C)C3OC(=O)C(C)C)OCC(O)C2O)cc1 (some centres not stated) = 50.7 nM

====

test system: HOP-62 NSCLC; test: NCI tumour cell line growth inhibition, 48 h
Measurement Label: TGI

1) O=C(/C=C/c1ccccc1)Nc1ncc(Cc2ccccc2)s1 = > 39 µM
2) C/C(=N\NC(=O)c1cccc(S(=O)(=O)N2CCN(C)CC2)c1)c1cc(Cl)ccc1O = 37.3 µM
3) CCc1cc(C)cc2[n+]1CC=C2C = > 100 µM
4) O=C(CC(C(=O)c1cccs1)c1ccsc1)c1ccc(Cl)cc1 (stereo unspecified) = > 100 µM
5) c1ccc(C2(c3ccccc3)S/C(=C3/SC(c4ccccc4)(c4ccccc4)c4ccccc43)c3ccccc32)cc1 = > 100 µM
6) CC(=O)CC(=O)ON(C)C(C)=O = > 100 µM

====

test system: SW-620 colon; test: NCI tumour cell line growth inhibition, 48 h; in the data active means GI50 below about 0.43 µM; inactive means the rest
Classes used: active, inactive

1) O=c1ncc(I)c[nH]1 = inactive
2) C/C(=N\NC(=O)c1cccc(S(=O)(=O)N2CCN(C)CC2)c1)c1cc(Cl)ccc1O = inactive
3) Nc1nc2ccccc2c2[nH]c3ccccc3c12 = active
4) CS(=O)(=O)OCCCCOS(C)(=O)=O = inactive
5) Cc1ccc(C(=O)Nc2ccc(CN3CCN(C)CC3)c(C(F)(F)F)c2)cc1C#Cc1cnc(N)c2ccc(C#N)cc12 = inactive
6) CC/C=C\C[C@H](O)C/C=C1/C(=O)C=C[C@@H]1C/C=C\CCCC(=O)OCCS(=O)(=O)c1ccccc1 = inactive
7) Oc1ccccc1/C=N/Nc1nc2ccccc2s1 = inactive
8) Cc1cc(N2CCCCC2)nc(NCc2cc(Nc3ccnc4cc(Cl)ccc34)ccc2F)n1 = inactive
9) COc1ccc(/C=C(/C(=O)N2CCN(c3ccc(C)cc3)CC2)c2cc(OC)c(OC)c(OC)c2)cc1N = active
10) O=c1[nH]ccc2nc(N3CCC(O)CC3)nc(Nc3ccc(N4CCOCC4)cc3)c12 = inactive

====

test system: SK-MEL-28 melanoma; experiment: NCI tumour cell line growth inhibition, 48 h
Measurement Label: TGI

1. CC1(C)CCCC2(C)C3=C(CCC12)C(=O)OC3 (stereo not given) = > 100 µM
2. O=C1CC2(CCN(CC3COc4ccccc4O3)CC2)C(=O)N1N1CCCCCC1 (stereo not given) = > 100 µM
3. OCCNC(=S)Nc1ccc(-c2nc(N3C[C@H]4CC[C@@H](C3)O4)c3cccn3n2)cc1 = 0.499 µM
4. CCOC(=O)C1Nc2ccc([N+](=O)[O-])cc2[C@H]2OCC[C@@H]12 (stereo not given in full) = > 100 µM
5. Nc1nc(Cl)cc(NCC2(CO)CC(CCCc3ccccc3)C2)n1 (stereo not given) = > 100 µM

====

tested on: UO-31 renal; experiment: NCI tumour cell line growth inhibition, 48 h
# TGI per record follows
Measurement Label: TGI

1. Cc1nc2ccc(F)cc2c2c1CCN2c1ccccc1 = 68.1 µM
2. COc1ccc(OC)c2sc(N3C(=O)/C(=C/c4ccc(SC)cc4)N=C3c3ccccc3)nc12 = 63.7 µM
3. CSc1ccc(/C=C/C(=O)c2nc3ccccc3[nH]2)cc1 = 19.9 µM
4. O=P1(N(CCCl)CCCl)Oc2c(Cl)cc(Cl)c(Cl)c2Cc2c(Cl)c(Cl)cc(Cl)c2O1 = > 100 µM
5. C[C@@]1([C@H](OC(=O)c2cccc3ccccc23)C(N)=O)CO1 = 8.8 µM
6. Cc1c2ccccc2c(CSC(=N)N)c2ccccc12 = 0.511 µM
7. O=C1/C(=N/N=C(c2ccccc2)c2ccccc2)c2ccccc2-c2ccccc21 = > 100 µM
8. CC1(C)CCCC2(C)C3=C(CCC12)C(=O)OC3 (stereo unspecified) = > 100 µM
9. CCCCCCCCCCCCCCCCOP(=O)(O)OP(=O)(O)OCC1OC(n2cnc3c(N)ncnc32)C(O)C1O (stereo unspecified) = > 100 µM
10. NNC(=O)C(O)C(O)C(O)CO (stereo unspecified) = > 100 µM
11. COc1cc2c(NCCN(C)C)nc3c4cc5c(cc4ccc3c2cc1OC)OCO5 = 7.05 µM
12. CSC1=C(C(=O)N(COCC[Si](C)(C)C)c2ccccc2Br)CCC(C(C)(C)C)C1 (stereo unspecified) = 27 µM
13. C/C(=N\NC(=O)C[n+]1ccccc1)c1sc(-c2nc(C)c(/C(C)=N/NC(=O)C[n+]3ccccc3)s2)nc1C = > 100 µM
14. O=C(O)c1[nH]c(=O)[nH]c(=O)c1CN1CCCCC1 = > 100 µM
15. CN(C)C(=O)C(NCCO)c1ccccc1 (stereo unspecified) = > 100 µM
16. CCN(CC)c1ccc(CNc2cc(C)nc3ccc(OC)cc23)cc1 = 6.23 µM
17. CN(C)C=O.CN(C)C=O.CN1C(C(=O)Nc2ccccn2)=C([O-])c2ccccc2S1(=O)=O.CN1C(C(=O)Nc2ccccn2)=C([O-])c2ccccc2S1(=O)=O.[Cu+2] = > 100 µM
18. COc1cc(C(=O)O)cc2c1[nH]c1ccccc12 = > 25 µM
19. Cc1cc(NCCCNc2ccnc3cc(Cl)ccc23)nc(Nc2ccc(C(=O)N3CCCCC3)cc2)n1 = 5.87 µM
20. C=C(c1ccc(OC)c(/C=C/C(=O)c2cc(OC)c(OC)c(OC)c2)c1)c1cc(OC)c(OC)c(OC)c1 = 2.34 µM
21. CN(C(=N)c1ccccc1)c1ccccc1 = > 100 µM
